Value source: patent US12448389B2

Assign DC50 to each entry below.
- assay_system: SMARCA4-HiBiT (Homo sapiens, UniProt P51532)
- Construct: SMARCA4-HiBiT knock-in Hela monoclonal cell (CS3023226); host or cells: HeLa monoclonal knock-in line (CRISPR HiBiT knock-in at the endogenous locus, heterozygous)
- Sequence (P51532 whole entry): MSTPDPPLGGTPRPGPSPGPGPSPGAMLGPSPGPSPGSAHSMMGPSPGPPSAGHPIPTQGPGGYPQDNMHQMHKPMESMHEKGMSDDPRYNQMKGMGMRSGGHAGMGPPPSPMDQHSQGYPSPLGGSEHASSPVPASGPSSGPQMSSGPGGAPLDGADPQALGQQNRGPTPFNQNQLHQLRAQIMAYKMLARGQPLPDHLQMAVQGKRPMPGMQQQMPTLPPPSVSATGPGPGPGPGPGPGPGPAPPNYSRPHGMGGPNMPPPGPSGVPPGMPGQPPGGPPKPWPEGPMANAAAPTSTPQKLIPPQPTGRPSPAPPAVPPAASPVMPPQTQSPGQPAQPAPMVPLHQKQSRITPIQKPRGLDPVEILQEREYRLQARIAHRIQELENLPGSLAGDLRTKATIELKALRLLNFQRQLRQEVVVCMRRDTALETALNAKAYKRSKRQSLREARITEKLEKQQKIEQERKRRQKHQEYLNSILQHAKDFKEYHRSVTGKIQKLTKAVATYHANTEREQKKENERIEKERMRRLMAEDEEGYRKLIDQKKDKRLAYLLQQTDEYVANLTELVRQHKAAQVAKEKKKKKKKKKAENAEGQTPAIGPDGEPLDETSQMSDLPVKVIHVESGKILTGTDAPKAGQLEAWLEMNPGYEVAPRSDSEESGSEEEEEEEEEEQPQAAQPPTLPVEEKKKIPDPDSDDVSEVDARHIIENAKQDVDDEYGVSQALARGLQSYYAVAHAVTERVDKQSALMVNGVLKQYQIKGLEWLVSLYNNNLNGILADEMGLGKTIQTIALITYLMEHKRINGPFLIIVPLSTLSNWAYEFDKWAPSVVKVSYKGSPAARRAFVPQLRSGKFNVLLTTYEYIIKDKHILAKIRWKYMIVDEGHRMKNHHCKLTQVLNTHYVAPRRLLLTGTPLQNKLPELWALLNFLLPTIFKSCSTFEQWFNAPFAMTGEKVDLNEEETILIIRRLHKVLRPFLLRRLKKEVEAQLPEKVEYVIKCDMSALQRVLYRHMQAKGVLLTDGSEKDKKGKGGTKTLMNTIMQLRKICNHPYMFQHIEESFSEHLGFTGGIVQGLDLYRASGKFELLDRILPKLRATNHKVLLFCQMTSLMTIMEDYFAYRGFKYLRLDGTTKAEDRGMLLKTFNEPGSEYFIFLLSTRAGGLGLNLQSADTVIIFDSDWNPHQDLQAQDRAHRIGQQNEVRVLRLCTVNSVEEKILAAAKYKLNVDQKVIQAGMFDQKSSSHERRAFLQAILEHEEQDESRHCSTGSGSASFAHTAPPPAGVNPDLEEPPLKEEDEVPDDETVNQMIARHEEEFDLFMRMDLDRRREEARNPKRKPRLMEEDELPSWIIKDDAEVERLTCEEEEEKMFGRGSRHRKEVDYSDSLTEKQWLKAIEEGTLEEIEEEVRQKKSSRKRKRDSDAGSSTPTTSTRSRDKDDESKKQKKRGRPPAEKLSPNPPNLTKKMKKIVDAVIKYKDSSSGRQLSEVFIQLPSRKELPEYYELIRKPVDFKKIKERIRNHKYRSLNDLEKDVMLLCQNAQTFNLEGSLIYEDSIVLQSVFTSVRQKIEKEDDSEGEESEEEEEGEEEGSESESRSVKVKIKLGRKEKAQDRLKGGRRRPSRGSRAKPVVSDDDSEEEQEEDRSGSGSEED
- test: SMARCA4 HiBiT degradation assay in HeLa cells
- Type: cell-based
- assay_conditions: 18 hours incubation, read-out: HeLa-HiBit-SM4 DC50

Ask: Consider the compound shown here: O=C1CCC(N2Cc3cc(CN4CCC(N5CCC(N6CCN7c8cc(-c9ccccc9O)nnc8NC[C@H]7C6)CC5)CC4)ccc3C2=O)C(=O)N1 (some centres unmarked) What is its recorded DC50?
Reply: < 10 nM

Ask: Sample CC1(C)CN(c2ccc3c(c2)C(=O)N(C2CCC(=O)NC2=O)C3=O)CCC1CN1CCC(CN2CCN3c4cc(-c5ccccc5O)nnc4NC[C@H]3C2)CC1 (some centres unmarked) — what was its DC50?
Reply: < 10 nM

Ask: Look up DC50: CN(CC1CCN(CC2CCN(c3ccc4c(c3)C(=O)N(C3CCC(=O)NC3=O)C4=O)CC2)CC1)C1CCN2c3cc(-c4ccccc4O)nnc3NCC2C1 (centres unmarked)
Reply: 10 to 100 nM

Ask: Which DC50 value is on record for O=C1CCC(N2Cc3ccc(N4CC(CN5C[C@@H]6[C@H](C5)[C@H]6CN5CCN6c7cc(-c8ccccc8O)nnc7NC[C@H]6C5)C4)cc3C2=O)C(=O)N1 (some centres unmarked) ?
Reply: < 10 nM

Ask: Could you share which DC50 value was measured for CC1CN(CC2CCN(c3ccc4c(c3)C(=O)N(C3CCC(=O)NC3=O)C4=O)CC2)CC(C)N1C(=O)N1CCN2c3cc(-c4ccccc4O)nnc3NC[C@H]2C1 (some centres unmarked) ?
Reply: < 10 nM

Ask: Give the measured DC50 of O=C1CCC(N2C(=O)c3ccc(NCCN4CCN(C(=O)N5CCN6c7cc(-c8ccccc8O)nnc7NC[C@H]6C5)CC4)cc3C2=O)C(=O)N1 (some centres unmarked) .
Reply: 10 to 100 nM

Ask: I have this compound here, O=C1CCC(N2Cc3cc(N4CCC(CN5CCC(OC(=O)N6CCN7c8cc(-c9ccccc9O)nnc8NC[C@H]7C6)CC5)CC4)ccc3C2=O)C(=O)N1 (some centres unmarked) , and I need its recorded DC50.
Reply: < 10 nM

Ask: Find the recorded DC50 belonging to O=C1CCC(N2C(=O)c3ccc(N4CC5(CC(N6C[C@@H]7[C@@H](CN8CCN9c%10cc(-c%11ccccc%11O)nnc%10NC[C@H]9C8)[C@@H]7C6)C5)C4)cc3C2=O)C(=O)N1 (some centres unmarked) and report it.
Reply: < 10 nM

Ask: May I ask what DC50 has been recorded for O=C1CCC(N2C(=O)c3ccc(N4CCCC(N5CCC(CN6CCN7c8cc(-c9ccccc9O)nnc8NC[C@H]7C6)CC5)C4)cc3C2=O)C(=O)N1 (some centres unmarked) ?
Reply: < 10 nM

Ask: Fill blank: measured DC50 of the compound O=C1CCC(N2Cc3cc(OCCN4CCC(N5CCN6c7cc(-c8ccccc8O)nnc7NC[C@H]6C5)C4)ccc3C2=O)C(=O)N1 (some centres unmarked) is ____.
Reply: 10 to 100 nM

Ask: I would be grateful if you could share the reported DC50 for C[C@H]1CN2c3cc(-c4ccccc4O)nnc3NC[C@H]2CN1C[C@H]1[C@@H]2CN(CC3CCN(c4ccc5c(c4)C(=O)N(C4CCC(=O)NC4=O)C5)CC3)C[C@@H]21 (some centres unmarked) .
Reply: 10 to 100 nM

---

- assay_system: SMARCA4-HiBiT (Homo sapiens)
- Construct: SMARCA4-HiBiT knock-in Hela monoclonal cell (CS3023226); host or cells: HeLa monoclonal knock-in line (CRISPR HiBiT knock-in at the endogenous locus, heterozygous)
- test: SMARCA4 HiBiT degradation assay in HeLa cells
- Format: cell-based
- assay_conditions: 18 hours incubation, read-out: HeLa-HiBit-SM4 DC50
value_kind: DC50

Ask: Fill in the blank: the reported DC50 of C[C@H]1CN2c3cc(-c4ccccc4O)nnc3NC[C@H]2CN1C[C@H]1[C@@H]2CN(C[C@H]3CCN(c4ccc5c(c4)C(=O)N(C4CCC(=O)NC4=O)C5)C[C@@H]3F)C[C@@H]21 (some centres unmarked) is ____.
Reply: 10 to 100 nM

Ask: Any idea what its DC50 is? The compound is O=C1CCC(N2Cc3ccc(N4CCC(CN5C[C@@H]6[C@H](C5)[C@H]6C(=O)N5CCN6c7cc(-c8ccccc8O)nnc7NC[C@H]6C5)CC4)cc3C2=O)C(=O)N1 (some centres unmarked)
Reply: 10 to 100 nM

Ask: Give the measured DC50 of O=C1CCC(N2C(=O)c3ccc(OC4CCN(CC5CCN(C(=O)N6CCN7c8cc(-c9ccccc9O)nnc8NC[C@H]7C6)CC5)CC4)cc3C2=O)C(=O)N1 (some centres unmarked) .
Reply: 10 to 100 nM

Ask: For the compound shown here, C[C@@H]1CN(CC2CCN(c3ccc4c(c3)C(=O)N(C3CCC(=O)NC3=O)C4)CC2)CCN1C(=O)N1CCN2c3cc(-c4ccccc4O)nnc3NC[C@H]2C1 (some centres unmarked) , give the reported DC50.
Reply: < 10 nM

Ask: Quick one: DC50 for O=C1CCC(N2C(=O)c3cccc(NCCCN4CCC(N5CCN6c7cc(-c8ccccc8O)nnc7NC[C@H]6C5)CC4)c3C2=O)C(=O)N1 (some centres unmarked) ?
Reply: < 10 nM

Ask: I would be grateful if you could share the reported DC50 for O=C1CCC(N2Cc3ccc(N4CC[C@H](CN5C[C@@H]6[C@H](C5)[C@H]6CN5CCN6c7cc(-c8ccccc8O)nnc7NC[C@H]6C5)[C@@H](F)C4)cc3C2=O)C(=O)N1 (some centres unmarked) .
Reply: < 10 nM

Ask: Given O=C1CCC(N2C(=O)c3ccc(N4CC(CN5CCC(CN6CCN7c8cc(-c9ccccc9O)nnc8NC[C@H]7C6)CC5)C(F)(F)C4)cc3C2=O)C(=O)N1 (some centres unmarked) , state its recorded DC50.
Reply: 10 to 100 nM

Ask: Param item = CC1(CN2C[C@@H]3[C@@H](CN4CCN5c6cc(-c7ccccc7O)nnc6NC[C@H]5C4)[C@@H]3C2)CN(c2ccc3c(c2)C(=O)N(C2CCC(=O)NC2=O)C3=O)CCO1 (some centres unmarked) ; retrieve measured DC50.
Reply: 10 to 100 nM

Ask: Which DC50 is reported for this compound? COC1(CN2C[C@@H]3[C@@H](CN4CCN5c6cc(-c7ccccc7O)nnc6NC[C@H]5C4)[C@@H]3C2)CCN(c2ccc3c(c2)C(=O)N(C2CCC(=O)NC2=O)C3)CC1 (some centres unmarked)
Reply: < 10 nM

Ask: State the recorded DC50 for this entry: CC1CN(CC2CCN(c3ccc4c(c3)C(=O)N(C3CCC(=O)NC3=O)C4)CC2)CC(C)N1C(=O)N1CCN2c3cc(-c4ccccc4O)nnc3NC[C@H]2C1 (some centres unmarked)
Reply: < 10 nM

Ask: # query: DC50 of entry C[C@@H]1C[C@H](CN2C[C@@H]3[C@H](C2)[C@H]3CN2CCN3c4cc(-c5ccccc5O)nnc4NC[C@H]3C2)CCN1c1cc2c(cc1F)C(=O)N(C1CCC(=O)NC1=O)C2=O (some centres unmarked)
Reply: 10 to 100 nM

---

- assay_system: SMARCA4 (Homo sapiens, UniProt P51532)
- Construct: endogenous in cells; host or cells: NCI-H520 (given as NCIH520 / NCIH1520 / H520)
- Sequence (P51532 whole entry): as above
- test: SMARCA4 protein degradation in NCIH520 cells by In Cell Western (ICW)
- Type: cell-based
- assay_conditions: NCI-H520, overnight incubation (maximum 18 hours), highest concentration 1 μM, read-out: Dmax % (SM4_H520): maximum SMARCA4 degradation within the concentrations tested
value_kind: Dmax

Ask: For the compound O=C1CCC(n2c3ccc(CCCN4CCN(CCN5CCN6c7cc(-c8ccccc8O)nnc7NC[C@H]6C5)CC4)cc3c3cccnc32)C(=O)N1 (stereo partly drawn) , what Dmax is on record?
Reply: > 75%

Ask: Return reported Dmax; argument: O=C1CCC(N2Cc3cc(CN4CCC(OCCN5CCC(N6CCN7c8cc(-c9ccccc9O)nnc8NC[C@H]7C6)CC5)CC4)ccc3C2=O)C(=O)N1 (stereo partly drawn)
Reply: 50 to 75%

Ask: Using the record for O=C1CCC(N2Cc3cc(CN4CCC(c5cnc(N6CCN7c8cc(-c9ccccc9O)nnc8NC[C@H]7C6)nc5)CC4)ccc3C2=O)C(=O)N1 (stereo partly drawn) , report its Dmax.
Reply: 50 to 75%

Ask: Quick check: Dmax of O=C1CCC(N2Cc3cc(CCCN4CCC(c5cnc(N6CCN7c8cc(-c9ccccc9O)nnc8NC[C@@H]7C6)nc5)CC4)ccc3C2=O)C(=O)N1 (stereo partly drawn) ?
Reply: > 75%

Ask: Report Dmax for O=C1CCC(N2Cc3cc(CCCN4CCC(CCc5cnc(N6CCN7c8cc(-c9ccccc9O)nnc8NC[C@@H]7C6)nc5)CC4)ccc3C2=O)C(=O)N1 (stereo partly drawn) please.
Reply: > 75%

Ask: Recorded Dmax of O=C1CCC(N2Cc3cc(CCN4CC=C(c5cnc(N6CCN7c8cc(-c9ccccc9O)nnc8NC[C@H]7C6)nc5)CC4)ccc3C2=O)C(=O)N1 (stereo partly drawn) , please.
Reply: > 75%

Ask: Looking for the measured Dmax of O=C1CCC(N2Cc3cc(CCN4CCC(/C=C/c5cnc(N6CCN7c8cc(-c9ccccc9O)nnc8NC[C@H]7C6)nc5)CC4)ccc3C2=O)C(=O)N1 (stereo partly drawn) , can you help?
Reply: > 75%

Ask: Please give the measured Dmax for this compound: O=C1CCC(N2Cc3cc(CCN4CCC(c5cnc(N6CCN7c8cc(-c9ccccc9O)nnc8NC[C@H]7C6)nc5)CC4)ccc3C2=O)C(=O)N1 (stereo partly drawn)
Reply: > 75%

Ask: Which Dmax value is on record for O=C1CCC(N2Cc3cc(CCN4CCC(c5cnc(N6CCN7c8cc(-c9ccccc9O)nnc8NC[C@@H]7C6)nc5)CC4)ccc3C2=O)C(=O)N1 (stereo partly drawn) ?
Reply: > 75%
